- ASSAY_TARGET: AgAbp1
- TEST_DESCRIPTION: SPOT peptide array binding signal intensity (averaged, normalized) (arbitrary units (background-subtracted, floor 0; scale differs between SH3 domains)); higher = stronger binding of the SH3 domain to the peptide
Task for the reader: assign each of the following binders its reported SPOT peptide array binding signal intensity.
// no unit, no text: just the number

GET /values?readout=SPOT peptide array binding signal intensity&item= KRRTSLFPWLHKPGI
14

GET /values?readout=SPOT peptide array binding signal intensity&item= NNQRRKPLLLNIGDH
108

GET /values?readout=SPOT peptide array binding signal intensity&item= LKVTPGRRAPTISKI
22

GET /values?readout=SPOT peptide array binding signal intensity&item= RRLRDKYKLPIVDAD
38
